Overview of reported interaction score across a group of binders:
Target: T1, 4H605-AA
T1 chain: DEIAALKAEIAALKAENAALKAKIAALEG
Experiment: two-hybrid library CCmax;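 also: natural log of median RNA to DNA barcode read ratio; higher means stronger binding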
Conditions: mean of both orientations
Number only, no unit.

{"columns": ["BINDER", "interaction score"],
 "data": [
  ["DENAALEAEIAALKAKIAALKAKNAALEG [4H1135-AA]", -1.37],
  ["DEIAALEAKNAALKAEIAALEAKIAALKG [4H454-AA]", -1.24],
  ["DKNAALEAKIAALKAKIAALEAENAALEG [4H3427-AA]", -1.66],
  ["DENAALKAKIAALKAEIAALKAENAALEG [4H1867-AA]", -1.5],
  ["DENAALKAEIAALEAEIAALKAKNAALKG [4H1552-AA]", -1.23],
  ["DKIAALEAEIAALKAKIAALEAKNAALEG [4H2151-AA]", -1.4]
]}

Let's switch to this binder now.
Req: Give recorded interaction score. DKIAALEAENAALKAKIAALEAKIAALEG [4H2277-AA]
Resp: -1.38

Data credit: paper PMC10397247
